- Substrate: BHET
- measurementContext: 120 h

| protein | plate clearing |
| --- | --- |
| unnamed (protein) MHQGIHMERKNIRRRWAIGLLGMLVLAASAHAQTNPHQKGPDPTSASLNATSGSFSVATSSVSSLGAVGFGGGTVYYPTTTGTYAVLAICPGFTATQSSIAWLGRRIATHGFVVITIDTNSTLDQPPSRATQLMAALNYVTNSSSATVRSRVDASRRGVAGHSMGGGGTLYAARDNPSLKAAVPLTAWSTLKSFSSVQVPTLVVGAESDSIASVSSHSIPFYNSLSTSLDKAYAELNGATHFAPNSTNTPIGRYSVSWVKRFMDNDTRYTPFLCGAPHQSYATSLVFSDYRSTCPY | not clears the plate |
| unnamed (protein) MNRSILERFVVGTSALLFSISAYSFTPSPTPEPEPEPCQGVCDFTRGPNPTSSYLEASRGPYSVNTVDVSRSVSGFGGGTIHYPTNTTGKMGAIAIVPGFLAAESSIAWWGPRLASHGFVVITIATNSTFDQPASRESQLSRALDYVINQSNSSGSPIAGKVDSTRVGAMGWSMGGGGTLKIASGSRLSAAIPLAPWHTGSNDFDQIDTPTMIIACENDTTAPVGRHASPFYNRISNATDKAYLEINNGGHSCANGGGTNAGLLGKYGVSWMKRFIDKDTRYSQFLCGPNHASNSAISEYRDTCSY | not clears the plate |

Origin of values: the PETadex activity labels
